pKi values for Mu-type opioid receptor (Cavia porcellus) compiled from several publications are listed below.
Units for pKi: none; it is -log10 of a concentration expressed in mol/L.

Exam item: Provide measured pKi value, entry: COc1ccc(/C(C)=C/CN(C)Cc2ccccc2)cc1
Marked response: 7.04

Exam item: Provide measured pKi value, entry: COC1Cc2ccccc2[C@]2(CC[C@@H](NCc3ccccc3)CC2)O1 (stereo partly specified)
Marked response: 7.42

Exam item: Provide measured pKi value, entry: CN(CC1CCCCC1)[C@H]1CC[C@@]2(CC1)OC=Cc1ccccc12
Marked response: 6.79

Exam item: Provide measured pKi value, entry: C/C(=C\CN1CCC(Cc2ccccc2)CC1)c1ccccc1
Marked response: 6.82

Exam item: Provide measured pKi value, entry: CC(CCN(C)Cc1ccccc1)c1ccc(-c2ccccc2)cc1 (racemic)
Marked response: 6.61

Exam item: Provide measured pKi value, entry: COC1O[C@]2(CC[C@H](NCC3CCCCC3)CC2)c2ccccc21 (stereo partly specified)
Marked response: 6.56

Exam item: Provide measured pKi value, entry: C1=Cc2ccccc2[C@]2(CC[C@@H](NCC3CCCCC3)CC2)O1
Marked response: 6.59

Exam item: Provide measured pKi value, entry: c1ccc(CN[C@H]2CC[C@@]3(CC2)OCCc2ccccc23)cc1
Marked response: 7.51

Exam item: Provide measured pKi value, entry: COC1O[C@]2(CC[C@H](N(C)CC3CCCCC3)CC2)c2ccccc21 (stereo partly specified)
Marked response: 6.64

Exam item: Provide measured pKi value, entry: COC1O[C@]2(CC[C@@H](NCC3CCCCC3)CC2)c2ccccc21 (stereo partly specified)
Marked response: 6.30

Exam item: Provide measured pKi value, entry: CN(C(=O)Cc1ccc(Cl)c(Cl)c1)[C@H](CN1CCCC1)c1cccc(NC(=O)CNC(=O)CNC(=O)CNC(=O)C/N=C(S)/N=C2\C=CC(=C3c4ccc(O)cc4Oc4cc(O)ccc43)C(C(=O)O)=C2)c1
Marked response: 6.20

Exam item: Provide measured pKi value, entry: CCOC1Cc2ccccc2[C@]2(CC[C@H](NCC3CCCCC3)CC2)O1 (stereo partly specified)
Marked response: 6.31

Exam item: Provide measured pKi value, entry: CCOC1Cc2ccccc2[C@]2(CC[C@@H](N(C)CC3CCCCC3)CC2)O1 (stereo partly specified)
Marked response: 6.06

Exam item: Provide measured pKi value, entry: FCC[C@H]1Cc2ccccc2C2(CCC(N3CCN(C4CCCCC4)CC3)CC2)O1 (stereo partly specified)
Marked response: 6.36

Exam item: Provide measured pKi value, entry: CN(CC1CCCCC1)[C@H]1CC[C@]2(CC1)OC=Cc1ccccc12
Marked response: 6.41

Exam item: Provide measured pKi value, entry: COC1Cc2ccccc2[C@]2(CC[C@@H](N(C)Cc3ccccc3)CC2)O1 (stereo partly specified)
Marked response: 7.39
